System: T1, soluble form of GPC3 core protein (human, UniProt P51654 25-563)
T1 construct: not shown: His tag added to the C-terminus
T1 sequence (P51654 25-563 S495A/S509A, form in doubt): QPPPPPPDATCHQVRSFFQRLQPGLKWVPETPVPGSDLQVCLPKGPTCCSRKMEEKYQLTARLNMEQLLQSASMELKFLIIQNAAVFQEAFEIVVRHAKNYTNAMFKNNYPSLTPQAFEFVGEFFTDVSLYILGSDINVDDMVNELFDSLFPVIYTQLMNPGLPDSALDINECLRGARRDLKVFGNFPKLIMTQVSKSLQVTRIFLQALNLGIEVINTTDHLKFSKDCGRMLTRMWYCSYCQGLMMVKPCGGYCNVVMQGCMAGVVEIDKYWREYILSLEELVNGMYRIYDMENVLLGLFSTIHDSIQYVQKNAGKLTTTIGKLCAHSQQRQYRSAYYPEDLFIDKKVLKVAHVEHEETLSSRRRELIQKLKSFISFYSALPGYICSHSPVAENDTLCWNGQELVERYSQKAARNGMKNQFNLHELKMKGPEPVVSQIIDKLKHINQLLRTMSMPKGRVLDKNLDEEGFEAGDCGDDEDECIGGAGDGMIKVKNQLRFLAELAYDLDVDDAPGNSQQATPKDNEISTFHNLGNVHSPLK
Protocol Description: ELISA on GPC3 (the legend says only GPC3; the filing's ELISA uses plates coated with soluble GPC3 core protein) [upper panel]
Please respond with reported EC50 (read off the curve) for every item in the list.

Here are 2 binders together with their reported answers.
Binder: GC33 mouse-human chimeric antibody (antibody, V domains shown, also called chimeric antibody GC33; mouse/mouse) VH: QVQLQQSGAELVRPGASVKLSCKASGYTFTDYEMHWVKQTPVHGLKWIGALDPKTGDTAYSQKFKGKATLTADKSSSTAYMELRSLTSEDSAVYYCTRFYSYTYWGQGTLVTVSA VL: DVVMTQTPLSLPVSLGDQASISCRSSQSLVHSNGNTYLHWYLQKPGQSPKLLIYKVSNRFSGVPDRFSGSGSGTDFTLKISRVEAEDLGVYFCSQNTHVPPTFGSGTKLEIK
EC50 (read off the curve): ~0.01 µg/mL

Binder: humanized GC33 ver.a/ver.a (antibody, V domains shown, Human IgG (HEFg gamma1 vector) and human kappa constant regions) VH: QVQLVESGAEVKKPGASVKVSCKASGYTFTDYEMHWVRQAPGQGLEWMGALDPKTGDTAYSQKFKGRVTITADESTSTAYMELSSLRSEDTAVYYCARFYSYTYWGQGTLVTVSS VL: DVVMTQSPLSLPVTPGEPASISCRSSQSLVHSNGNTYLHWYLQKPGQSPQLLIYKVSNRFSGVPDRFSGSGSGTDFTLKISRVEAEDVGVYYCSQNTHVPPTFGQGTKLEIK
EC50 (read off the curve): ~0.1 µg/mL

Proceeding to the next binder to report its EC50 (read off the curve).
Check the records and state EC50 (read off the curve) for humanized GC33 H chain ver.f / L chain ver.a (antibody, V domains shown) VH: QVQLVESGAEVKKPGASVKVSCKASGYTFTDYEMHWVRQAPGQGLEWMGALDPKTGDTAYSQKFKGRVTLTADKSTSTAYMELSSLRSEDTAVYYCTRFYSYTYWGQGTLVTVSS VL: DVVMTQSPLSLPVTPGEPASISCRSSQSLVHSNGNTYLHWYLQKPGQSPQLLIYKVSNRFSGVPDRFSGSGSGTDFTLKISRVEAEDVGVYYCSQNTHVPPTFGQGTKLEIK ~0.01 µg/mL
